# target: human BCRP (Homo sapiens)
# Sequence (Q9UNQ0 1-655): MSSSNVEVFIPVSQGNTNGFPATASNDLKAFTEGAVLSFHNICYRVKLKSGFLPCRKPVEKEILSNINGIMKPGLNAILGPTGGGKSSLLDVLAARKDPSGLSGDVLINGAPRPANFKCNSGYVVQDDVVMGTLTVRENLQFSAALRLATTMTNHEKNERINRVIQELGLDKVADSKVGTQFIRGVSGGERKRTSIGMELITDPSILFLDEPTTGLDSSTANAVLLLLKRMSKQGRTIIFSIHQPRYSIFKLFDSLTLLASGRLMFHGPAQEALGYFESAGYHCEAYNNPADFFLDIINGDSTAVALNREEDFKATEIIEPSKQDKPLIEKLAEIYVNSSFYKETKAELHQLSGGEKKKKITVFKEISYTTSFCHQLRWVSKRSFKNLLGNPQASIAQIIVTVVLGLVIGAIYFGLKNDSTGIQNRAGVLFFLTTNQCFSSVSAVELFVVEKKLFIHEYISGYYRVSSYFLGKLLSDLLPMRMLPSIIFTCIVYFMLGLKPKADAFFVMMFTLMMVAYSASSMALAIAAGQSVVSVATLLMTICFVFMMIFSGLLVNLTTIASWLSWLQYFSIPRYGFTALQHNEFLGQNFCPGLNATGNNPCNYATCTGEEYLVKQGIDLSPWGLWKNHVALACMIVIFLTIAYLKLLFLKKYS
# procedureSummary: in vitro
recordedEndpoint: activity at 3 h, 10 μmol/L (%)
Answers are plain numbers, in %.

**Query** Item `C=CC(=O)N1C[C@H](n2c(C#CC3CC3)c(C(=O)N[C@H](C)c3ccccc3)c3c(N)ncnc32)C[C@@H]1C` : provide activity at 3 h, 10 μmol/L
**Result** 3
